- Tested on: Trypanosoma brucei
- protocol_text: Selectivity ratio of EC50 for Trypanosoma brucei NfxR1 to EC50 for Trypanosoma brucei
- Format: functional
attribute_measured: Ratio EC50
Just the number, please.

Recorded results for 5 compounds are shown here.
[Q] System Trypanosoma brucei. Read-out Ratio EC50. Item NCCCC(N)(C(=O)O)C(F)F (stereo not drawn) . Report value.
[A] 1

[Q] System Trypanosoma brucei. Read-out Ratio EC50. Item O=[N+]([O-])c1cn2c(n1)OC[C@@H](OCc1ccc(OC(F)(F)F)cc1)C2 . Report value.
[A] 1

[Q] System Trypanosoma brucei. Read-out Ratio EC50. Item NC(=O)N/N=C/c1ccc([N+](=O)[O-])o1 . Report value.
[A] 12

[Q] System Trypanosoma brucei. Read-out Ratio EC50. Item O=C(Cn1ccnc1[N+](=O)[O-])NCc1ccccc1 . Report value.
[A] 5

[Q] System Trypanosoma brucei. Read-out Ratio EC50. Item Cn1c([N+](=O)[O-])cnc1COc1ccc([S+](C)[O-])cc1 (stereo not drawn) [FEXINIDAZOLE SULFOXIDE] . Report value.
[A] 13

Others:
[Q] System Trypanosoma brucei. Read-out Ratio EC50. Item NC(=O)c1cc(N2CC2)c([N+](=O)[O-])cc1[N+](=O)[O-] . Report value.
[A] 15

[Q] System Trypanosoma brucei. Read-out Ratio EC50. Item Cn1c([N+](=O)[O-])cnc1COc1ccc(S(C)(=O)=O)cc1 . Report value.
[A] 15

[Q] System Trypanosoma brucei. Read-out Ratio EC50. Item N=C(N)c1ccc(OCCCCCOc2ccc(C(=N)N)cc2)cc1 . Report value.
[A] 3
